FYI, the data here is from patent US20220317138A1.

Assayed System: beta-lactamase class D OXA-48 (Klebsiella pneumoniae, UniProt Q6XEC0)
Sequence (Q6XEC0 23-265 limits assumed): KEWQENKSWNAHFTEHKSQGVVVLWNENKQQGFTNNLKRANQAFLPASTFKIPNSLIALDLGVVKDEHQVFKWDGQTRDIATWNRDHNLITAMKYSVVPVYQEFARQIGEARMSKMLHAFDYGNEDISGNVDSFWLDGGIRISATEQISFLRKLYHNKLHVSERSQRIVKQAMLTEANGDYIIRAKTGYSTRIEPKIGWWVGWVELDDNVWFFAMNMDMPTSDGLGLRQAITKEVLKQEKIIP
Assay type: biochemical
Details: Meropenem 1.2 mg/L, second β-lactam 10.0 mg/L (8.4 times excess), average of 5 replicates
Text: The specificity (or selectivity) of the method according to an embodiment of the invention is defined as the ability of the method to measure the concentration of a carbapenem antibiotic (such as meropenem) in presence of an excess of another beta-lactam antibiotic (second beta-lactam) currently used in ICUs (see Table 4). […]
Examples of molecules with documented [Meropenem] <> (average) follow.
Value Type: [Meropenem] <> (average) (mg/L)

Molecule	Value Type	Reading Unit	Endpoint Result
C[C@@H](O)[C@H]1C(=O)N2C(C(=O)O)=C(S[C@@H]3CN[C@H](C(=O)N(C)C)C3)[C@H](C)[C@H]12 [Meropenem, meropenem]	[Meropenem] <> (average)	mg/L	1.2
Cc1onc(-c2ccccc2)c1C(=O)N[C@@H]1C(=O)N2[C@@H]1SC(C)(C)[C@@H]2C(=O)O [Penstapho ®]	[Meropenem] <> (average)	mg/L	1.4
Cn1nnnc1SCC1=C(C(=O)O)N2C(=O)[C@@H](NC(=O)[C@H](O)c3ccccc3)[C@H]2SC1 [Cefamandole ®, Cefamandole]	[Meropenem] <> (average)	mg/L	1.3
CC1(C)S[C@@H]2[C@H](NC(=O)[C@H](N)c3ccccc3)C(=O)N2[C@H]1C(=O)O [Pentrexyl ®]	[Meropenem] <> (average)	mg/L	1.3
CO/N=C(\C(=O)N[C@@H]1C(=O)N2C(C(=O)O)=C(CSc3nc(=O)c(O)nn3C)CS[C@H]12)c1csc(N)n1 [Ceftria ®]	[Meropenem] <> (average)	mg/L	1.3
CO/N=C(\C(=O)N[C@@H]1C(=O)N2C(C(=O)O)=C(COC(C)=O)CS[C@H]12)c1csc(N)n1 [Cefotaxim ® Sandoz]	[Meropenem] <> (average)	mg/L	1.3
CC1(C)S[C@@H]2[C@H](NC(=O)[C@H](C(=O)O)c3ccsc3)C(=O)N2[C@H]1C(=O)O [Ticarpen ®]	[Meropenem] <> (average)	mg/L	1.3
CC(C)(O/N=C(\C(=O)N[C@@H]1C(=O)N2C(C(=O)[O-])=C(C[n+]3ccccc3)CS[C@H]12)c1csc(N)n1)C(=O)O [Ceftazidime]	[Meropenem] <> (average)	mg/L	1.3
CO/N=C(\C(=O)N[C@@H]1C(=O)N2C(C(=O)O)=C(COC(N)=O)CS[C@H]12)c1ccco1 [Zinacef ®]	[Meropenem] <> (average)	mg/L	1.2

====

Assayed System: beta-lactamase class D OXA-48 (Klebsiella pneumoniae, UniProt Q6XEC0)
Type: biochemical
Details: Meropenem 20.0 mg/L, second β-lactam 200.0 mg/L (10 times excess), replicate 2

Compound	Accuracy Replicate 2 / %
Cn1nnnc1SCC1=C(C(=O)O)N2C(=O)[C@@H](NC(=O)[C@H](O)c3ccccc3)[C@H]2SC1 [Cefamandole ®, Cefamandole]	98
CO/N=C(\C(=O)N[C@@H]1C(=O)N2C(C(=O)O)=C(COC(N)=O)CS[C@H]12)c1ccco1 [Zinacef ®]	98
CO/N=C(\C(=O)N[C@@H]1C(=O)N2C(C(=O)O)=C(COC(C)=O)CS[C@H]12)c1csc(N)n1 [Cefotaxim ® Sandoz]	94
CC1(C)S[C@@H]2[C@H](NC(=O)[C@H](C(=O)O)c3ccsc3)C(=O)N2[C@H]1C(=O)O [Ticarpen ®]	105
CC1(C)S[C@@H]2[C@H](NC(=O)[C@H](N)c3ccccc3)C(=O)N2[C@H]1C(=O)O [Pentrexyl ®]	93
C[C@@H](O)[C@H]1C(=O)N2C(C(=O)O)=C(S[C@@H]3CN[C@H](C(=O)N(C)C)C3)[C@H](C)[C@H]12 [Meropenem, meropenem]	104
Cc1onc(-c2ccccc2)c1C(=O)N[C@@H]1C(=O)N2[C@@H]1SC(C)(C)[C@@H]2C(=O)O [Penstapho ®]	104
CO/N=C(\C(=O)N[C@@H]1C(=O)N2C(C(=O)O)=C(CSc3nc(=O)c(O)nn3C)CS[C@H]12)c1csc(N)n1 [Ceftria ®]	96
CC(C)(O/N=C(\C(=O)N[C@@H]1C(=O)N2C(C(=O)[O-])=C(C[n+]3ccccc3)CS[C@H]12)c1csc(N)n1)C(=O)O [Ceftazidime]	97
